pIC50: −log10 of the molar value.
Reported pIC50, MALT1 (Homo sapiens).

sample_smiles | test_system | pIC50
COc1ccc2cnn(C)c2c1NS(=O)(=O)c1ccc(-n2cc(C(C)(C)C)cn2)nc1 | MALT1 (Homo sapiens) | 6.00 to 6.40
COc1ncccc1-c1ccc(S(=O)(=O)Nc2cccc3cnn(C)c23)cn1 | MALT1 (Homo sapiens) | < 5.60
Cn1ncc2ccc(C3CC3)c(NS(=O)(=O)c3ccc(-n4cc(Cl)cn4)nc3)c21 | MALT1 (Homo sapiens) | > 6.40

## Task Given the entry Cn1ncc2cccc(NS(=O)(=O)c3ccc(-c4cnc(N5CCOCC5)s4)nc3)c21 , what pIC50 was observed with MALT1 (Homo sapiens)?
## Result < 5.60

## Task Given the entry Cn1ncc2cccc(NS(=O)(=O)c3ccc(-n4cc(F)cn4)nc3)c21 , what pIC50 was observed with MALT1 (Homo sapiens)?
## Result 5.60 to 6.00

## Task Given the entry COc1ccc2cnn(C)c2c1NS(=O)(=O)c1ccc(-c2cnc(C)s2)nc1 , what pIC50 was observed with MALT1 (Homo sapiens)?
## Result > 6.40

----------
Reported pIC50, MALT1 (Homo sapiens, UniProt Q9UDY8).
pIC50: −log10 of the molar value.

compound | pIC50
Cn1cc(-c2ccc(S(=O)(=O)Nc3cccc4cnn(C)c34)cn2)cn1 [Example I-107] | < 5.60
Cc1c(-c2ccc(S(=O)(=O)Nc3cccc4cnn(C)c34)cn2)cnn1C1COC1 [Example I-274] | < 5.60
Cc1nn(C2COC2)cc1-c1ccc(S(=O)(=O)Nc2cccc3cnn(C)c23)cn1 [Example I-275] | < 5.60
Cn1ncc2cccc(NS(=O)(=O)c3ccc(-n4ccc(C5CC5)n4)nc3)c21 [Example I-207] | 5.60 to 6.00
Cc1ncncc1-c1ccc(S(=O)(=O)Nc2cccc3cnn(C)c23)cn1 [Example I-115] | < 5.60

## Task I have this compound here, Cn1ncc2cccc(NS(=O)(=O)c3ccc(-c4cnn5c4COCC5)nc3)c21 [Example I-270] , and I need its recorded pIC50.
## Result < 5.60

## Task I have this compound here, COc1ccc(-c2ccc(S(=O)(=O)Nc3cccc4cnn(C)c34)cn2)cn1 [Example I-210] , and I need its recorded pIC50.
## Result < 5.60

## Task I have this compound here, COC(C)(C)c1ncc(-c2ccc(S(=O)(=O)Nc3cccc4cnn(C)c34)cn2)s1 [Example I-268] , and I need its recorded pIC50.
## Result < 5.60

## Task I have this compound here, COc1ccc2[nH]nc(C)c2c1NS(=O)(=O)c1ccc(-c2cnn3c2CCC3)nc1 [Example I-295] , and I need its recorded pIC50.
## Result < 5.60

## Task I have this compound here, COc1ccc2cnn(C)c2c1NS(=O)(=O)c1ccc(-n2cc(F)cn2)nc1 [Example I-150] , and I need its recorded pIC50.
## Result > 6.40

----------
test_system: MALT1 (Homo sapiens, UniProt Q9UDY8)
Construct: Avi-tagged FL MALT-1 (Pharmaron, stored at −70° C.); Avi tag
test_details: MALT-1 Fluorogenic Peptide Cleavage Assay (MALT1 inhibition assay)
Type: biochemical
run_conditions: Avi-tagged FL MALT-1, Ac-LRSR-AMC peptide substrate, 30 min pre-incubation, 90 min reaction
The entries below come with measured IC50 values attached.

Worked examples follow.
sample_smiles | test_system | result
[2H]C([2H])([2H])n1ncc2ccc(OC)c(NS(=O)(=O)c3ccc(-n4cc(C5CC5)cn4)nc3)c21 | MALT1 (Homo sapiens, UniProt Q9UDY8) | < 400 nM
COc1ccc2cnn(C)c2c1NS(=O)(=O)c1ccc(-n2cc(C(C)(C)O)cn2)nc1 | MALT1 (Homo sapiens, UniProt Q9UDY8) | > 2500 nM
COc1ccc2cnn(C)c2c1NS(=O)(=O)c1ccc(-n2ccc(C(F)F)n2)nc1 | MALT1 (Homo sapiens, UniProt Q9UDY8) | < 400 nM

# ---- query compound ----
## Task I have this compound here, COc1ccc2cnn(C)c2c1NS(=O)(=O)c1ccc(-n2cc(C)c(C)n2)nc1 , and I need its recorded IC50.
## Result < 400 nM

----------
test_system: MALT1 (Homo sapiens)
Sequence (Q9UDY8 1-824): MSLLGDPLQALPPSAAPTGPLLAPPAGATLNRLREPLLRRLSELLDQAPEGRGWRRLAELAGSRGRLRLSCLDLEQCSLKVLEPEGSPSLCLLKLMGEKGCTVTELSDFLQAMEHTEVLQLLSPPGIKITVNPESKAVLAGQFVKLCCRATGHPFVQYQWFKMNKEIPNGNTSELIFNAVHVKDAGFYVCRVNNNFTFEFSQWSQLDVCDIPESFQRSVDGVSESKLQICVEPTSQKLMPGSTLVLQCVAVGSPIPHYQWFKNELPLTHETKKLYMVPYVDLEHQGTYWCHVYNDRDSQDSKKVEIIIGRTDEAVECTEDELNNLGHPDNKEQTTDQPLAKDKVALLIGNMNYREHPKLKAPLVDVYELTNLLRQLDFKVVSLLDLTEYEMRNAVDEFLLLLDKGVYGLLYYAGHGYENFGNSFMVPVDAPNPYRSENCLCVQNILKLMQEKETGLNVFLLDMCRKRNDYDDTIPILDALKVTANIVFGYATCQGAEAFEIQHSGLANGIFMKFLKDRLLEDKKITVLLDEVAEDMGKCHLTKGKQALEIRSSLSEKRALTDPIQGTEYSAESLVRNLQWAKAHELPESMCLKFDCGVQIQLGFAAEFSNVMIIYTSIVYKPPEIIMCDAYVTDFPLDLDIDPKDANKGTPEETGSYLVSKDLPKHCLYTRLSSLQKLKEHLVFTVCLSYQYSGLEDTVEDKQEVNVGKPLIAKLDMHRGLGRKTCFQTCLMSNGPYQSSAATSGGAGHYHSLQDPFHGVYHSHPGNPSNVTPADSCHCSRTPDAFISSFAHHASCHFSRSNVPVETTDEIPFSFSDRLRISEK
The entries below come with measured IC50 values attached.

sample_smiles | IC50
[2H]C([2H])(C)c1ccc2cnn(C)c2c1NS(=O)(=O)c1ccc(-n2cc(C(F)(F)F)cn2)nc1 | < 400 nM
COc1ccc2[nH]nc(C)c2c1NS(=O)(=O)c1ccc(-n2cc(C(F)(F)F)cn2)nc1 | < 400 nM
Cc1nc(C)c(-c2ccc(S(=O)(=O)Nc3cccc4cnn(C)c34)cn2)s1 | 400 to 1000 nM
Cn1ncc2cccc(NS(=O)(=O)c3ccc(-n4cc([N+](=O)[O-])cn4)nc3)c21 | < 400 nM
COc1ncc(-c2ccc(S(=O)(=O)Nc3cccc4cnn(C)c34)cn2)s1 | > 2500 nM

## Task I have this molecule here, COc1ccc2cnn(C)c2c1NS(=O)(=O)c1ccc(-n2nnc(C)n2)nc1 , and I need its recorded IC50.
## Result > 2500 nM

## Task I have this molecule here, CCOC(=O)c1cnn(-c2ccc(S(=O)(=O)Nc3cccc4cnn(C)c34)cn2)c1C , and I need its recorded IC50.
## Result > 2500 nM

## Task I have this molecule here, COc1ccc2cnn(C)c2c1NS(=O)(=O)c1ccc(-c2nnc(C)o2)nc1 , and I need its recorded IC50.
## Result > 2500 nM

----------
pIC50: −log10 of the molar value.
Reported pIC50, MALT1 (Homo sapiens, UniProt Q9UDY8).

Worked examples follow.
sample_smiles | pIC50
CN[C@@H]1CCCC[C@H]1N(C)c1ccc(S(=O)(=O)Nc2cccc3cnn(C)c23)cn1 | < 5.60
Cn1cc(-c2ccc(S(=O)(=O)Nc3cccc4cnn(C)c34)cn2)nc1C(F)(F)F | 5.60 to 6.00
Cn1ncc2cccc(NS(=O)(=O)c3ccc(-c4cnn5c4OCCC5)nc3)c21 | < 5.60
Cn1ncc2cccc(NS(=O)(=O)c3ccc(-c4cnc5n4CCOC5)nc3)c21 | < 5.60
[2H]C([2H])([2H])n1ncc2cnc(OC)c(N(C)S(=O)(=O)c3ccc(-n4cc(C(F)(F)F)cn4)nc3)c21 | > 6.40

## Task Given the entry COc1ccc2c(F)nn(C)c2c1NS(=O)(=O)c1ccc(-n2cc(C)cn2)nc1 , what pIC50 was observed with MALT1 (Homo sapiens, UniProt Q9UDY8)?
## Result > 6.40

## Task Given the entry COc1ncc2cnn(C)c2c1NS(=O)(=O)c1ccc(-c2cnn3c2CCC3)nc1 , what pIC50 was observed with MALT1 (Homo sapiens, UniProt Q9UDY8)?
## Result < 5.60

## Task Given the entry COCCn1ncc2cccc(NS(=O)(=O)c3ccc(-n4ccc(C(C)C)n4)nc3)c21 , what pIC50 was observed with MALT1 (Homo sapiens, UniProt Q9UDY8)?
## Result < 5.60

## Task Given the entry Cn1[nH]c2c(NS(=O)(=O)c3ccc(-n4cc(C(F)(F)F)cn4)nc3)cccc2c1=O , what pIC50 was observed with MALT1 (Homo sapiens, UniProt Q9UDY8)?
## Result < 5.60

## Task Given the entry Cc1cc(-c2ccc(S(=O)(=O)Nc3cccc4cnn(C)c34)cn2)[nH]n1 , what pIC50 was observed with MALT1 (Homo sapiens, UniProt Q9UDY8)?
## Result < 5.60
